Target: Proteinase-activated receptor 1 (Homo sapiens, UniProt P25116)
Sequence (P25116 whole entry): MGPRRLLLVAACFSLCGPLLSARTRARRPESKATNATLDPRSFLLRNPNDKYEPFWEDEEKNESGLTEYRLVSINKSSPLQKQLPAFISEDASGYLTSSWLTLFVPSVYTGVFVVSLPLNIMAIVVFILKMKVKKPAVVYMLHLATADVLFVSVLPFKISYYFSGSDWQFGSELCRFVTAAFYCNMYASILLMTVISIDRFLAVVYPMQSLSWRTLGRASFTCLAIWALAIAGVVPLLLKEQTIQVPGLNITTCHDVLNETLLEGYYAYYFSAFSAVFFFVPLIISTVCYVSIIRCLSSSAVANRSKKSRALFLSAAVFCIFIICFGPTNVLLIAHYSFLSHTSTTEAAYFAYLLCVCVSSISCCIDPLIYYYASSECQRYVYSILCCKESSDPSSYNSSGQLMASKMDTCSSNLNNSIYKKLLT
Assay: Displacement of [3H]haTRAP from PAR-1 isolated from human platelets by liquid scintillation counting analysis
resultType: Ki (nM)
Supply the numeric figure in nM, leaving out any unit text.

[
  {
    "structureSmiles": "C[C@H]1OC(=O)[C@@H]2C[C@@H]3C[C@H](C(=O)NCCO)CC[C@H]3[C@H](/C=C/c3ccc(-c4cccc(C(F)(F)F)c4)cn3)[C@H]12",
    "Ki / nM": 98
  },
  {
    "structureSmiles": "CNC(=O)[C@@H]1CC[C@@H]2[C@@H](C1)C[C@H]1C(=O)O[C@H](C)[C@H]1[C@H]2/C=C/c1ccc(-c2cccc(C(F)(F)F)c2)cn1",
    "Ki / nM": 25
  },
  {
    "structureSmiles": "CC(=O)NC[C@@H]1CC[C@@H]2[C@@H](C1)C[C@H]1C(=O)O[C@H](C)[C@H]1[C@H]2/C=C/c1ccc(-c2cccc(F)c2)cn1",
    "Ki / nM": 12
  },
  {
    "structureSmiles": "CC(C)NC(=O)[C@@H]1CC[C@@H]2[C@@H](C1)C[C@H]1C(=O)O[C@H](C)[C@H]1[C@H]2/C=C/c1ccc(-c2cccc(C(F)(F)F)c2)cn1",
    "Ki / nM": 31
  },
  {
    "structureSmiles": "C[C@H]1OC(=O)[C@@H]2C[C@@H]3C[C@H](C(=O)Nc4ccncc4)CC[C@H]3[C@H](/C=C/c3ccc(-c4cccc(C(F)(F)F)c4)cn3)[C@H]12",
    "Ki / nM": 140
  }
]

Q. Find Ki (Proteinase-activated receptor 1 (Homo sapiens, UniProt P25116)) for the entry C[C@H]1OC(=O)[C@@H]2C[C@@H]3C[C@H](CNC(=O)C4CCNCC4)CC[C@H]3[C@H](/C=C/c3ccc(-c4cccc(F)c4)cn3)[C@H]12
A. 13.5

Q. How about this compound: CCOC(=O)N[C@@H]1CC[C@@H]2[C@@H](C1)C[C@H]1C(=O)O[C@H](C)[C@H]1[C@H]2/C=C/c1ccc(-c2cccc(F)c2)cn1
A. 8.5
